All figures here come from patent US20250313631A1.

target of assay: T1, recombinant human VISTA (His-tagged) (human, UniProt Q9H7M9 33-194)
T1 construct: bought soluble protein (Sino Biological); also called hVISTA; human VISTA polypeptide
assay: BLI (Octet), 1:1 global fit, human VISTA captured
value type: kon (M⁻¹ s⁻¹)
# unit: M⁻¹ s⁻¹ | format: bare number

anti-VISTA clone V4-C27 IgG1 (antibody, V domains shown) VH: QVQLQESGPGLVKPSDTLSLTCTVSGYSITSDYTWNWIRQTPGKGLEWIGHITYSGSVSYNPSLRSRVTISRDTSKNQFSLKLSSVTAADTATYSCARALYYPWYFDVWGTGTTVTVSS VL: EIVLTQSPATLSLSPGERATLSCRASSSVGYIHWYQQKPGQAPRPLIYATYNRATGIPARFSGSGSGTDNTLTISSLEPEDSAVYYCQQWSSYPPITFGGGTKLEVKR    511000
anti-VISTA clone V4-C24 IgG1 (antibody, V domains shown) VH: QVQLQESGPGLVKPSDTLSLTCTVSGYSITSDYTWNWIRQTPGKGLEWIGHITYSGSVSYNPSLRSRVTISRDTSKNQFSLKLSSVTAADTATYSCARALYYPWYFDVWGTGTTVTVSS VL: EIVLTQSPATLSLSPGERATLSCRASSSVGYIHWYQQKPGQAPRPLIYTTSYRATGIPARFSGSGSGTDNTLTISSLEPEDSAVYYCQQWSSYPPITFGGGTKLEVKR    373000
anti-VISTA clone V4-C9 IgG1 (antibody, V domains shown) VH: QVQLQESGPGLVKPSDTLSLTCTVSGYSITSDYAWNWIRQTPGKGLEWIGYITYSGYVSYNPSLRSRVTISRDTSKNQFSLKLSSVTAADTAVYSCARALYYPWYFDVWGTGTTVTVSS VL: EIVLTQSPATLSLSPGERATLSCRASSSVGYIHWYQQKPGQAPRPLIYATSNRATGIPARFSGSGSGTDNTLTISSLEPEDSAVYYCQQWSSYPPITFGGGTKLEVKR    450000

Summary for this binder, anti-VISTA clone V4-C1 IgG1 (antibody, V domains shown) VH: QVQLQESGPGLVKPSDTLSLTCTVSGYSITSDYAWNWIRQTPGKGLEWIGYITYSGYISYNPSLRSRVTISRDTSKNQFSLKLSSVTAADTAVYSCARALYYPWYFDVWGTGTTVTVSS VL: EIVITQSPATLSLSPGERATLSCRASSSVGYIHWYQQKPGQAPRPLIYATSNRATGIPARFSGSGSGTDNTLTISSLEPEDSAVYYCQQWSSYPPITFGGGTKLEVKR : kon is 391000
